study-target: HLA-DR1 (DRB1*0101) (human)
assay-overview: competition with 125I-labelled probe peptide on purified HLA-DR, gel filtration; IC50 of standard peptide / IC50 of test peptide
Provide the reported relative binding ratio of each item.
Numbers only, in ratio.

Some binders with recorded relative binding ratio:
* ETELVEPLTPSGAMP (also called Her2/neu.693) [HER2/neu peptide ETELVEPLTPSGAMP (position 693)] | 0.006
* IKVLRENTSPKANKE (also called Her2/neu.752) [HER2/neu peptide IKVLRENTSPKANKE (position 752)] | -0.0005
* GTDMKLRLPASPETH (also called Her2/neu.28) [HER2/neu peptide GTDMKLRLPASPETH (position 28)] | 0.001

Entry under test: DMKLRLPASPETHLD (also called Her2/neu.30) [HER2/neu peptide DMKLRLPASPETHLD (position 30)] . Its relative binding ratio was 0.001
